- Test system: M14
- assay-procedure: NCI tumour cell line growth inhibition, 48 h
Activity calls are given as the source filed them. No stated cut-off is given here; in the data, active = GI50 up to about 1.1 µM and inactive = higher.
For each entry below, report its GI50 value.

Examples with answers:
{"columns": ["molecule", "GI50"],
 "data": [
  ["COC(=O)c1ccc(/N=N/N(C)COc2ccc(C#N)cc2)cc1", "> 100 µM (inactive)"],
  ["COc1ccccc1C(=O)NO", "> 100 µM (inactive)"],
  ["CCOC(=O)C(NC(=O)c1ccccc1)(Nc1ccc(S(=O)(=O)Nc2nc(C)cc(C)n2)cc1)C(F)(F)F (stereo not given)", "> 100 µM (inactive)"],
  ["CCOC(=O)CCC(NC(=O)OCc1ccccc1)C(=O)NC(CCC(=O)OCC)C(=O)NC(CCC(=O)OCC)C(=O)NNC(=O)OC(C)(C)C (stereo not given)", "> 100 µM (inactive)"],
  ["O=C(C#Cc1ccccc1)C1=Cc2ccccc2OC1", "3.01 µM (inactive)"]
]}

Items follow; give GI50 for each.
1. c1ccc(OC2=NC3=S(S2)SC(Oc2ccccc2)=N3)cc1
2. COC(=O)C1=C(O)C(C(=O)OC)[C@]2(O)[C@H](C(=O)OC)[C@H]1C[C@@H](c1ccc([N+](=O)[O-])cc1)[C@H]2C(=O)OC (stereo not given in full)
3. CCOC(=O)C#Cc1cccc(C#CC(=O)OCC)c1
4. COc1ccc(SC(C)(SC)c2ccccn2)c(OC)n1 (stereo not given)
5. C[N+](C)(C)CC1CCCCC1=O (stereo not given)

output:
1: 18.4 µM (inactive); 2: 15.7 µM (inactive); 3: 2.13 µM (inactive); 4: > 100 µM (inactive); 5: 16.6 µM (inactive)

----------
- Test system: SF-295
- assay-procedure: NCI tumour cell line growth inhibition, 48 h
Activity calls are given as the source filed them. Rule as the data show it: active = GI50 up to about 1.1 µM and inactive = higher.
# output must be one of active, inactive

{"columns": ["compound", "label-value"],
 "data": [
  ["CCCCCCCCCCCCCCCCCCOP(=O)([O-])OCC[N+](C)(C)C", "active"]
]}

input: I'd appreciate the recorded outcome for Cc1ccc(-c2n[nH]c(=O)n2/N=C\c2ccccc2)cc1 from this test.
output: inactive

input: I'd appreciate the recorded outcome for C=C1C(=O)OC2CCN3CC=C(COC(=O)C(C)(O)C4(CO4)C1C)C23 (stereo not given) from this test.
output: inactive

input: I'd appreciate the recorded outcome for CN(CCc1ccccn1)c1nc(=[N+](C)C)ss1 from this test.
output: inactive

input: I'd appreciate the recorded outcome for COc1cc2[nH]c(=O)c3cc(C)cc4c(Cl)nc(c1OC)c2c43 from this test.
output: inactive

input: I'd appreciate the recorded outcome for CC(C)=CC(=O)CC(=O)C(=O)NCCNC(=O)C(=O)CC(=O)C=C(C)C from this test.
output: inactive

----------
- System: T47D
- assay-procedure: NCI tumour cell line growth inhibition, 48 h
Activity calls are given as the source filed them. Rule as the data show it: active = GI50 up to about 1.1 µM and inactive = higher.
measurement-label: GI50

{"columns": ["molecule", "GI50"],
 "data": [
  ["Cc1ccc(S(=O)(=O)OC2CCN(C)CC2)cc1", "23.1 µM (inactive)"],
  ["Cc1cccc(/C=N/NC(=S)NCc2ccccn2)n1", "31 µM (inactive)"],
  ["O=C(c1c(Cl)cc(Cl)cc1Cl)N(Cc1cccnc1)C(=S)N(Cc1cccnc1)C(=O)c1c(Cl)cc(Cl)cc1Cl", "14.4 µM (inactive)"]
]}

Items follow; give GI50 for each.
1. C/C(=N\NC(=S)NC1CCCC1)c1ccccn1
2. CCOC(=O)CCC(NC(=O)Cc1ccc(Oc2nc3ccccc3nc2-c2ccccc2)cc1)C(=O)OCC (stereo unspecified)

output:
["< 0.01 µM (active)", "24.9 µM (inactive)"]

Items follow; give GI50 for each.
1. NS(=O)(=O)c1nc(S(=O)(=O)O)c2[nH]cnc2n1
2. CNC(=O)OCc1c(COC(=O)NC)c(C)n(-c2ccc(Br)cc2)c1C

output:
["> 100 µM (inactive)", "10.2 µM (inactive)"]

Items follow; give GI50 for each.
1. Cn1c(=O)oc2cc(C(O)CN3CCN(Cc4ccccn4)CC3)c(Cl)cc21 (stereo unspecified)
2. C/C(=C\CO)CC/C=C(\C)CNc1c(F)c(F)c(F)c(F)c1F
3. CN(/N=C/C=N/N(C)C1=NCCN1)C1=NCCN1
4. OC(CCN1CCN(CCOC(c2ccccc2)c2ccccc2)CC1)c1ccc(Br)cc1 (stereo unspecified)

output:
1: > 100 µM (inactive); 2: 61.2 µM (inactive); 3: > 100 µM (inactive); 4: 10.4 µM (inactive)
